Tested on: Malme-3M
Experiment Notes: NCI tumour cell line growth inhibition, 48 h
The source made the active and inactive calls. Rule as the data show it: active = GI50 up to about 1.1 µM and inactive = higher. Where a SMILES comes first, the peptide text is derived from it. The star is where a group is joined. Boc = CC(C)(C)OC(=O)*
Items are presented alongside their recorded GI50.
Measured Parameter: GI50

INSERT INTO measurements (molecule, observed_result) VALUES
  ('CC(=O)N1CCc2c([nH]c3ccc(Br)cc23)C1c1ccccc1 (configuration not stated)', '> 10 µM (inactive)'),
  ('O=C1Nc2ccccc2C12CCCC2', '> 100 µM (inactive)'),
  ('O=C(NC(=O)c1cn(CCN(CCO)C(=O)NCCCCCCNC(=O)N(CCO)CCn2cc(C(=O)NC(=O)OCc3ccccc3)c(=O)[nH]c2=O)c(=O)[nH]c1=O)OCc1ccccc1', '> 100 µM (inactive)'),
  ('Cc1nn(C(=O)c2ccc(Cl)cc2)c2c1C(c1ccccc1)SC(=N)N2 (configuration not stated)', '> 10 µM (inactive)'),
  ('BrCCC[P+](c1ccccc1)(c1ccccc1)c1ccccc1', '16.2 µM (inactive)'),
  ('O=C(c1ccccc1)c1ccc2n[se]nc2c1', '> 100 µM (inactive)'),
  ('Cc1ccc(S(=O)(=O)Oc2nc3ccccc3nc2OS(=O)(=O)c2ccc(C)cc2)cc1', '17 µM (inactive)'),
  ('COC(=O)C(Cc1c[nH]c2ccccc12)NC(=O)C(Cc1c[nH]c2ccccc12)NC(=O)C(Cc1c[nH]c2ccccc12)NC(=O)C(Cc1c[nH]c2ccccc12)NC(=O)C(Cc1c[nH]c2ccccc12)NC(=O)C(Cc1c[nH]c2ccccc12)NC(=O)C(Cc1c[nH]c2ccccc12)NC(=O)C(Cc1c[nH]c2ccccc12)NC(=O)OC(C)(C)C (configuration not stated) (Boc-WWWWWWWW-OMe; configuration not given here)', '53.2 µM (inactive)'),
  ('N#CCc1ccc(/C(C#N)=C2/OC(=N)C(c3ccc(CC#N)cc3)C2=O)cc1 (configuration not stated)', '> 100 µM (inactive)'),
  ('NNc1ncc2c(n1)-c1ccccc1OC2', '51.2 µM (inactive)'),
  ('COc1ccc(/C=C2\CCC(CNc3ccc(Br)cc3)C2=O)cc1 (configuration not stated)', '> 100 µM (inactive)'),
  ('COc1ccc(-n2cnc3c(N)nc(N)nc32)cc1', '> 100 µM (inactive)'),
  ('O=C(c1ccc(Cl)c(Cl)c1)N(C(=O)N1CCN(c2ccccc2)CC1)S(=O)(=O)c1ccccc1', '60 µM (inactive)'),
  ('Nc1cccc2c1C1=NNC(=O)CC1C2 (configuration not stated)', '> 100 µM (inactive)'),
  ('CCCCCCNC(=O)c1cc(NCc2cc(OC)ccc2OC)ccc1O', '22.5 µM (inactive)'),
  ('CC1(C)CCC[C@@]2(C)C1CCC1(C)C(CCc3ccoc3)/C(=C/OS(=O)(=O)O)CCC12 (some centres not stated)', '> 100 µM (inactive)'),
  ('COc1cc(-c2cc(=O)c3c(O)c(CC=C(C)C)c(O)cc3o2)ccc1O', '13.5 µM (inactive)'),
  ('CC(SCc1ccccc1)C(=O)O (configuration not stated)', '> 100 µM (inactive)'),
  ('CC(C)(C)N1CC2(CCCCC2)C1=O', '> 100 µM (inactive)'),
  ('CC1(C)CN=C(Nc2ccc(F)c(F)c2)S1', '> 100 µM (inactive)'),
  ('O=[N+]([O-])c1ccc2c(c1)Sc1ccccc1N2', '> 100 µM (inactive)'),
  ('N=C1C(O)C2(I)c3ccccc3N3C(=N)C(O)C4c5ccccc5N1C4C32 (configuration not stated)', '21.1 µM (inactive)'),
  ('CSc1s[s+]c(SC)c1[O-]', '16.6 µM (inactive)'),
  ('CCOC(=O)C1S/C(=N\c2ccc(OC)c(OC)c2)N=C1C (configuration not stated)', '37.7 µM (inactive)'),
  ('CC[P+](C)(C)CC', '> 100 µM (inactive)'),
  ('Cc1cc2c(cc1C)[n+]([O-])c(C(=O)C/C(=N/NC(=O)CC#N)C(=O)Nc1ccccc1C(F)(F)F)c(C)[n+]2[O-]', '3.56 µM (inactive)'),
  ('CCCCCCc1cc2cc(-c3cn4ccccc4n3)c(=O)oc2cc1O', '1.71 µM (inactive)');

====

Test system: OVCAR-4
Experiment Notes: NCI tumour cell line growth inhibition, 48 h
Calls of active or inactive are those of the source. Rule as the data show it: active = GI50 up to about 1.1 µM and inactive = higher.
Measured Parameter: GI50

INSERT INTO assay_data (compound, observed_result) VALUES
  ('COc1ccc(NC/C=C/C(=C/COC(C)=O)OC(C)=O)cc1', '1.82 µM (inactive)'),
  ('Cn1c2c(c3ccccc31)CCN(CCCCN1CCc3c(n(C)c4ccccc34)C1=O)C2', '36.7 µM (inactive)'),
  ('Cc1cc(C)c(/N=N/c2c(O)c(S(=O)(=O)O)cc3cc(S(=O)(=O)O)ccc23)cc1C', '> 100 µM (inactive)'),
  ('O=C1c2c(ccc3c2CCC3)CC12Cc1ccccc1C2', '31.2 µM (inactive)'),
  ('O=C(c1ccccc1)N1CCC(CC2(c3cc4ccccc4[nH]3)OCCO2)CC1', '47.3 µM (inactive)'),
  ('O=C([O-])C(O)C(O)C(=O)O.[K+] (centres undefined) [POTASSIUM HYDROGENTARTRATE]', '> 100 µM (inactive)'),
  ('CN(C)CC/C(=N\Nc1ccc(Cl)cc1)c1ccccc1', '1.77 µM (inactive)'),
  ('CCCCCCc1cc2cc(-c3cn4ccccc4n3)c(=O)oc2cc1O', '4.66 µM (inactive)'),
  ('COc1cc(OC)cc(-c2cc(O)c3cc4c(cc3n2)OCO4)c1', '17.1 µM (inactive)');

====

System: CCRF-CEM
Experiment Notes: NCI tumour cell line growth inhibition, 48 h
Activity calls are given as the source filed them. Rule as the data show it: active = GI50 up to about 1.1 µM and inactive = higher.
Items are presented alongside their recorded GI50.
Measured Parameter: GI50

INSERT INTO measurements (compound, target_system, observed_result) VALUES
  ('NS(=O)(=O)c1ccc(NC(=O)c2cc([N+](=O)[O-])cc([N+](=O)[O-])c2)cc1', 'CCRF-CEM', '28800 nM (inactive)'),
  ('Cc1cnc2[nH]c(-c3cccc(Cl)c3)cc(=O)c2c1', 'CCRF-CEM', '42.5 nM (active)'),
  ('COc1ccc(CC2c3cc(Oc4cc(CC5c6cc(OC)c(OC)cc6CCN5C)ccc4O)c(OC)cc3CCN2C)cc1 (stereo not drawn)', 'CCRF-CEM', '519 nM (active)');

====

System: MDA-MB-231
Experiment Notes: NCI tumour cell line growth inhibition, 48 h
Active and inactive are the calls of the source. Rule as the data show it: active = GI50 up to about 1.1 µM and inactive = higher.
Measured Parameter: GI50

INSERT INTO measurements (compound, observed_result) VALUES
  ('COc1ccc(-n2cnc3c(N)nc(N)nc32)cc1', '57.8 µM (inactive)'),
  ('Cc1cc2c(c(=O)o1)C1=S(SC(c3ccccc3)=C1)S2 (configuration not stated)', '57.4 µM (inactive)'),
  ('O=C1CCCC(=O)N1n1c(Cc2ccc(Cl)cc2)n[nH]c1=O', '> 100 µM (inactive)'),
  ('COCC(/N=C\N1CCCc2ccccc2[C@@H]1CCCCl)C(C)(C)C (some centres not stated)', '3.49 µM (inactive)'),
  ('Cc1cnc2sn(-c3ccc(Br)cc3)c(=O)c2c1', '30.5 µM (inactive)'),
  ('CC(=O)C(=[N+]=[N-])C(=O)N(C)CCC#N', '> 10 µM (inactive)'),
  ('OCC1OC(n2cnc3c(SCc4ccccc4)ncnc32)C(O)C1O (configuration not stated)', '5.48 µM (inactive)');

====

Tested on: NCI-H522
Experiment Notes: NCI tumour cell line growth inhibition, 48 h
Calls of active or inactive are those of the source. Cut-off read from the data, not from the text of the source: active = GI50 up to about 1.1 µM and inactive = higher.
Measured Parameter: GI50

INSERT INTO assay_data (molecule, observed_result) VALUES
  ('CCN(CCCl)c1cc(CN(C)C)cc(NC(=O)c2ccc(C(=O)Nc3ccccc3)cc2)c1', '0.109 µM (active)'),
  ('CC1CC[P+](c2ccccc2)(c2ccccc2)c2c1ccc1ccccc21 (centres undefined)', '1.16 µM (inactive)'),
  ('COc1cc(C(c2cccc3ccccc23)N2C(=O)CCC2C(=O)NCc2ccccc2)cc(OC)c1OC (centres undefined)', '> 100 µM (inactive)'),
  ('COC(=O)C1=C(OC(=O)/C=C/c2ccccc2)C(C(=O)OC)[C@@]2(O)[C@@H](C(=O)OC)[C@H](C)C[C@@H]1[C@@H]2C(=O)OC (some centres undefined)', '5.58 µM (inactive)');

====

Tested on: Hs-578T
Experiment Notes: NCI tumour cell line growth inhibition, 48 h
Calls of active or inactive are those of the source. No stated cut-off is given here; in the data, active = GI50 up to about 1.1 µM and inactive = higher.
Items are presented alongside their recorded GI50.
Measured Parameter: GI50

INSERT INTO measurements (molecule, target_system, measured_parameter, observed_result) VALUES
  ('c1csc(-c2cscc2-c2ccsc2)c1', 'Hs-578T', 'GI50', '20.4 µM (inactive)'),
  ('Cc1ccc(/N=N/c2c(O)ccc3cc(S(=O)(=O)O)cc(S(=O)(=O)O)c23)cc1', 'Hs-578T', 'GI50', '> 100 µM (inactive)'),
  ('CC(C)(C)N1Cc2ccccc2/C(=C/Sc2ccccc2)C1=O', 'Hs-578T', 'GI50', '16.7 µM (inactive)'),
  ('COc1c(-c2nc3ccc(N4CCN(C)CC4)cc3[nH]2)cc(OC)c2[nH]c(CO)nc12', 'Hs-578T', 'GI50', '> 100 µM (inactive)'),
  ('O=C1C(Cl)=C(NCCO)C(=O)c2c(O)ccc(O)c21', 'Hs-578T', 'GI50', '6.56 µM (inactive)'),
  ('CCOC(=O)CCC(NC(=O)OCc1ccccc1)C(=O)NC(CCC(=O)OCC)C(=O)NNC(=O)OC(C)(C)C (configuration not stated)', 'Hs-578T', 'GI50', '> 100 µM (inactive)'),
  ('O=C1C(=O)N(c2cccc(C(F)(F)F)c2)C(=S)N1c1ccccc1', 'Hs-578T', 'GI50', '27.9 µM (inactive)'),
  ('NC(CCP(=O)(O)CCC1C=CC=CC1)C(=O)O (configuration not stated)', 'Hs-578T', 'GI50', '> 100 µM (inactive)'),
  ('O=C(Nc1ccccc1F)c1c(O)nc2sccn2c1=O', 'Hs-578T', 'GI50', '> 10 µM (inactive)'),
  ('Oc1ccc(/C=C/c2ccc3cccc(O)c3n2)cc1O', 'Hs-578T', 'GI50', '36.1 µM (inactive)'),
  ('CCc1c(CNC2=NCCN2)c(CC)c(CNC2=NCCN2)c(CC)c1CNC1=NCCN1', 'Hs-578T', 'GI50', '> 100 µM (inactive)'),
  ('COc1cc(O)c2c(=O)c3ccccc3n(C)c2c1', 'Hs-578T', 'GI50', '13.4 µM (inactive)');
